Numbers sourced from the supplement of paper PMC10567573.

B1: GOLPH3 (parent)
chain: FAPLLDEQYDLATKRVRQLLDLDP

Variants of: B1
Experiment: protein stability index of a GFP-peptide fusion (GPS, HEK-293T) (PSI 1-6); higher = more stable;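 also: lentivirally expressed fusions sorted by FACS into six bins by GFP to DsRed ratio, PSI derived from sequencing read proportions per bin multiplied by bin number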
Conditions: c terminus: a fixed tail appended
In this section we review reported protein stability index values for a set of variants.
// print number alone

Please review the following examples before continuing.
Req: Quick one: protein stability index of F1Q ?
Resp: 4.03

Req: Quick one: protein stability index of A12M ?
Resp: 2.8

Req: Quick one: protein stability index of D23G ?
Resp: 2.65

Req: Quick one: protein stability index of D23Q ?
Resp: 2.11

Then this variant:
Req: Quick one: protein stability index of T13C ?
Resp: 1.54
